# credit: patent US20240059799A1

SYSTEM: T1, recombinant human TL1A (human, UniProt O95150 71-251)
T1 construct: homotrimer; biotinylated for SPR capture; the ELISA paragraphs say only 'recombinant TL1A'; also called TNFSF15
T1 chain: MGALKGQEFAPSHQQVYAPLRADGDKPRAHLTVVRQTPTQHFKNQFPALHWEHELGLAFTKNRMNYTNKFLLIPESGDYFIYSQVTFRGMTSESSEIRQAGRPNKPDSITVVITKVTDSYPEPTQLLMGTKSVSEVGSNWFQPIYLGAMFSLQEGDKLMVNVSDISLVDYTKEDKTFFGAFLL
ASSAY_NOTES: competition ELISA vs bio-TL1A-0002
pIC50: −log10 of the molar value.
Measured pIC50 values are reported for all entries that follow.

- BINDER: "TL1A-0043 (antibody, human IgG1, kappa, V domains shown, IgG1/kappa; VL graft on IGKV3D-7*01) VH: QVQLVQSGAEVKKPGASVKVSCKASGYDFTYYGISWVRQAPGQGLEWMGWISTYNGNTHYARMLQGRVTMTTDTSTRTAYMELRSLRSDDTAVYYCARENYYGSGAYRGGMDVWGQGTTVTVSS VL: EIVMTQSPATLSLSPGERATLSCRASQSVSSYLAWYQQKPGQAPRLLIYDASNRATGIPARFSGSGSGTDFTLTISSLQPEDFAVYYCQQRSNWPWTFGQGTKVEIKR"
  pIC50: 8.41
- BINDER: "TL1A-0053 (antibody, human IgG1, kappa, V domains shown, IgG1/kappa; IGHV1-46*01 / IGKV3D-7*01 grafts) VH: QVQLVQSGAEVKKPGASVKVSCKASGYDFTYYGISWVRQAPGQGLEWMGWISTYNGNTHYARMLQGRVTMTRDTSTSTVYMELSSLRSEDTAVYYCARENYYGSGAYRGGMDVWGQGTTVTVSS VL: EIVMTQSPATLSLSPGERATLSCRASQSVSSYLAWYQQKPGQAPRLLIYDASNRATGIPARFSGSGSGTDFTLTISSLQPEDFAVYYCQQRSNWPWTFGQGTKVEIKR"
  pIC50: 8.35
- BINDER: "TL1A-0048 (antibody, human IgG1, kappa, V domains shown, IgG1/kappa; VH graft on IGHV1-2*02) VH: QVQLVQSGAEVKKPGASVKVSCKASGYDFTYYGISWVRQAPGQGLEWMGWISTYNGNTHYARMLQGRVTMTRDTSISTAYMELSRLRSDDTAVYYCARENYYGSGAYRGGMDVWGQGTTVTVSS VL: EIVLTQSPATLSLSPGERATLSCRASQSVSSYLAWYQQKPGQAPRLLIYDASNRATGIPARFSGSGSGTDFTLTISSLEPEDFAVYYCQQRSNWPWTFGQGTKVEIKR"
  pIC50: 8.39
